B1: Twister Ribozyme (parent)
chain: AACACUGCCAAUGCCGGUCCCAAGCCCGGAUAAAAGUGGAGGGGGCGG

Variants of: B1
Test: self-cleavage, relative activity (ratio to wild type); higher = more cleavage; co-transcriptional
RECORDED_ENDPOINT: self-cleavage
Please reply with the value in numeric form only.

Inquiry: Consider the variant G28A G44U and give its measured self-cleavage.
Reply text: 0.874

Inquiry: Consider the variant A11G G43U and give its measured self-cleavage.
Reply text: 0.374

Inquiry: Consider the variant G29U A35U and give its measured self-cleavage.
Reply text: 0.892

Inquiry: Consider the variant A1G A11C and give its measured self-cleavage.
Reply text: 0.349

Inquiry: Consider the variant C19U G47A and give its measured self-cleavage.
Reply text: 0.763

Inquiry: Consider the variant G43U G47A and give its measured self-cleavage.
Reply text: 0.201

Inquiry: Consider the variant A11C G16A and give its measured self-cleavage.
Reply text: 0.234

Inquiry: Consider the variant G16A A30U and give its measured self-cleavage.
Reply text: 1.04

Inquiry: Consider the variant A22U U31C and give its measured self-cleavage.
Reply text: 0.935

Inquiry: Consider the variant G16C G28U and give its measured self-cleavage.
Reply text: 0.383

Inquiry: Consider the variant G41C and give its measured self-cleavage.
Reply text: 0.326

Inquiry: Consider the variant C9G U31A and give its measured self-cleavage.
Reply text: 0.648

Inquiry: Consider the variant C19A A34G and give its measured self-cleavage.
Reply text: 0.101

Inquiry: Consider the variant U12C A34U and give its measured self-cleavage.
Reply text: 0.886

Inquiry: Consider the variant G16U G28C and give its measured self-cleavage.
Reply text: 1.02

Inquiry: Consider the variant A35U G39U and give its measured self-cleavage.
Reply text: 0.134

Inquiry: Consider the variant A4U G43U and give its measured self-cleavage.
Reply text: 0.0514

Inquiry: Consider the variant C9G G24C and give its measured self-cleavage.
Reply text: 0.0967

Inquiry: Consider the variant U6G A35C and give its measured self-cleavage.
Reply text: 0.678

Inquiry: Consider the variant U6C A23U and give its measured self-cleavage.
Reply text: 0.0534

Inquiry: Consider the variant A11C G45U and give its measured self-cleavage.
Reply text: 0.748

Inquiry: Consider the variant G28U G36U and give its measured self-cleavage.
Reply text: 0.136

Inquiry: Consider the variant G36C G48C and give its measured self-cleavage.
Reply text: 0.657

Inquiry: Consider the variant A4C G36C and give its measured self-cleavage.
Reply text: 0.0766

Inquiry: Consider the variant A30C U31G and give its measured self-cleavage.
Reply text: 0.839

Inquiry: Consider the variant C3U A34U and give its measured self-cleavage.
Reply text: 0.314

Inquiry: Consider the variant A40U G48C and give its measured self-cleavage.
Reply text: 0.209

Inquiry: Consider the variant G28A G36A and give its measured self-cleavage.
Reply text: 0.397

Inquiry: Consider the variant A2U A33G and give its measured self-cleavage.
Reply text: 0.503

Inquiry: Consider the variant A11G G36C and give its measured self-cleavage.
Reply text: 0.0984

Inquiry: Consider the variant A11C G42A and give its measured self-cleavage.
Reply text: 0.248

Inquiry: Consider the variant A40G G44A and give its measured self-cleavage.
Reply text: 0.157

Inquiry: Consider the variant G13C A32C and give its measured self-cleavage.
Reply text: 0.159

Inquiry: Consider the variant C3U A40C and give its measured self-cleavage.
Reply text: 0.0947

Inquiry: Consider the variant U37G G45C and give its measured self-cleavage.
Reply text: 0.268

Inquiry: Consider the variant C20U G39U and give its measured self-cleavage.
Reply text: 0.15

Inquiry: Consider the variant A4U G39U and give its measured self-cleavage.
Reply text: 0.0721

Inquiry: Consider the variant C8A A34C and give its measured self-cleavage.
Reply text: 0.189

Inquiry: Consider the variant C8G G28A and give its measured self-cleavage.
Reply text: 0.0928

Inquiry: Consider the variant U12G A34C and give its measured self-cleavage.
Reply text: 0.287

Inquiry: Consider the variant C21A A32U and give its measured self-cleavage.
Reply text: 0.152

Inquiry: Consider the variant C25A G38A and give its measured self-cleavage.
Reply text: 0.0977

Inquiry: Consider the variant C25U A35U and give its measured self-cleavage.
Reply text: 0.764

Inquiry: Consider the variant A1G G48C and give its measured self-cleavage.
Reply text: 0.524

Inquiry: Consider the variant C14G C19U and give its measured self-cleavage.
Reply text: 0.426

Inquiry: Consider the variant U18C G41U and give its measured self-cleavage.
Reply text: 0.13

Inquiry: Consider the variant A2C C3U and give its measured self-cleavage.
Reply text: 0.0628

Inquiry: Consider the variant G7A C14U and give its measured self-cleavage.
Reply text: 0.43

Inquiry: Consider the variant A2U G47U and give its measured self-cleavage.
Reply text: 0.23

Inquiry: Consider the variant C5G G36A and give its measured self-cleavage.
Reply text: 0.732

Inquiry: Consider the variant A4U G42U and give its measured self-cleavage.
Reply text: 0.0714

Inquiry: Consider the variant A33C G45A and give its measured self-cleavage.
Reply text: 0.795

Inquiry: Consider the variant A33C G43U and give its measured self-cleavage.
Reply text: 0.297

Inquiry: Consider the variant G13C C19A and give its measured self-cleavage.
Reply text: 0.0574

Inquiry: Consider the variant C26A G48C and give its measured self-cleavage.
Reply text: 0.434

Inquiry: Consider the variant C27U G44U and give its measured self-cleavage.
Reply text: 0.774
